All figures here come from patent US20250064941A1.

For each entry below, report its pKd value.
- target: human Siglec-2/CD22 protein (Homo sapiens)
- Sequence (P20273 20-847): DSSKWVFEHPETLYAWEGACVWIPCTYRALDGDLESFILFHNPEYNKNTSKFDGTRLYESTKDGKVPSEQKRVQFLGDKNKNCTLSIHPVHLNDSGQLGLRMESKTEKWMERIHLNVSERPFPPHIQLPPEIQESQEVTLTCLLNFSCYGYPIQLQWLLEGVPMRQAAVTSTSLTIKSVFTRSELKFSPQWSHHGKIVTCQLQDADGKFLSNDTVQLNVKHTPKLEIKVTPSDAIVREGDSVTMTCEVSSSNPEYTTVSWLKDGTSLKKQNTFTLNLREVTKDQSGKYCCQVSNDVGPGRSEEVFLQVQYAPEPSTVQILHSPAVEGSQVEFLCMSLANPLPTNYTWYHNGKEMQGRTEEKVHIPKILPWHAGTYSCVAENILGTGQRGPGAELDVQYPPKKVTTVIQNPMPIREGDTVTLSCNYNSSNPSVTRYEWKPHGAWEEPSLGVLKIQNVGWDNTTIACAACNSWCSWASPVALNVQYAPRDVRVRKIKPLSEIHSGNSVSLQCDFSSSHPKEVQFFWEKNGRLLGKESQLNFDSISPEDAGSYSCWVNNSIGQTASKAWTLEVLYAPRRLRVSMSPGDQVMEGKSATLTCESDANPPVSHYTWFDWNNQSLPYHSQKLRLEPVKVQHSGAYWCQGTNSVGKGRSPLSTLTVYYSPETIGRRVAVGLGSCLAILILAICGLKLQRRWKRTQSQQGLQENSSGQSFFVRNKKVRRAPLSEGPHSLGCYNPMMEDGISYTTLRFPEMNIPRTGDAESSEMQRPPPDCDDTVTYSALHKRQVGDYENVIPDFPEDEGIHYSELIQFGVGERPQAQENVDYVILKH
- run_description: SPR binding affinity to human CD22
- recorded_conditions: steady-state analysis
pKd: −log10 of the molar value.

C#CCOCCOCCNc1c(NCCCCCCO[C@]2(C(=O)O)C[C@H](O)[C@@H](NC(=O)CO)[C@H]([C@H](O)[C@H](O)CNC(=O)c3cccc(Cl)c3)O2)c(=O)c1=O    > 6.00
NCC(O)CO[C@]1(C(=O)O)C[C@H](O)[C@@H](NC(=O)CO)[C@H]([C@H](O)[C@H](O)CNC(=O)Cc2ccc(Cl)cc2)O1 (stereo partly shown)    < 5.00
CC(=O)NCCOCCOCCOCCOCCC(=O)NCCOCCOCCO[C@]1(C(=O)O)C[C@H](O)[C@@H](NC(C)=O)[C@H]([C@H](O)[C@H](O)CNC(=O)Cc2ccc(Cl)cc2)O1    < 5.00

The compound C#CCNC(=O)c1ccc(CS[C@]2(C(=O)O)C[C@H](O)[C@@H](NC(=O)CO)[C@H]([C@H](O)[C@H](O)CNC(=O)Cc3ccc(Cl)cc3)O2)cc1 , when measured on human Siglec-2/CD22 protein (Homo sapiens), yielded pKd of > 6.00
